Biological target: T1, Human VE-PTP (HPTP-β) containing first eight FN3 repeats with C-terminal His6 tag (Human ½ VE-PTP ECD) (human, UniProt P23467 23-820)
T1 construct: Produced in HEK293 cells and purified by the His tag; it was not cut off; also called Human Beta ½ ECD
T1 sequence: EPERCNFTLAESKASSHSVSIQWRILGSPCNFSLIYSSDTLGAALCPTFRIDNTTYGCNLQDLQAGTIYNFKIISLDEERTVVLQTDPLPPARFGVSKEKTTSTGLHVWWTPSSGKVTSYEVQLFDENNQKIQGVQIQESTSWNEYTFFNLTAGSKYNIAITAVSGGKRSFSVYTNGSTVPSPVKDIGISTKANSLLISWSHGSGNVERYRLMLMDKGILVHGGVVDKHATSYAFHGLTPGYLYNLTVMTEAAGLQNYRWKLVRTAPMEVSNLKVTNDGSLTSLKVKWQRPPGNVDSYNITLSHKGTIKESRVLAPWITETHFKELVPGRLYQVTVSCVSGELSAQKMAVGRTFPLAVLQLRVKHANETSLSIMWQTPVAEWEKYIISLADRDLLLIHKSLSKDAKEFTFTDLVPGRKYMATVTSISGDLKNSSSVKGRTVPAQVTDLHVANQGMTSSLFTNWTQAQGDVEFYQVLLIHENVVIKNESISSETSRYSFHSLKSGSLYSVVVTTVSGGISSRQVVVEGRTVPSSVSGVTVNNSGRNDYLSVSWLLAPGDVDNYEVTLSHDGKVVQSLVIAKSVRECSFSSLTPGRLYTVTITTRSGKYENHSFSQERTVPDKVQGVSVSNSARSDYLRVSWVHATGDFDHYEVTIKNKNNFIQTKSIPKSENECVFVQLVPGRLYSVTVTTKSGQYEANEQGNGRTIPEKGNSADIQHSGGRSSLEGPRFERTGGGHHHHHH
Test: SPR (Biacore 3000), antibody captured on anti-human IgG, antigen as analyte 100 nM (single concentration)
Metric Name: Kd (nM)
Give bare numbers, in nM.

1) humanized R15E6 variant HC3LC4 (antibody, human IgG4 S228P, kappa, V domains shown, Human IgG4 (S228P) / kappa, expressed in CHO cells; Signal peptides left out by range; also called VH3-VL4) VH: EVQLVESGGGLVQPGRSLRLSCTASGFTFNANAMNWVRQAPGKGLEWVGRIRTKSNNYATYYAGSVKDRFTISRDDSKNIAYLQMNSLKTEDTAVYYCVRDYYGSSAWITYWGQGTLVTVSS VL: DIVMTQSPDSLAVSLGERATINCKASQHVGTAVAWYQQKPEQPPKLLIYWASTRHTGVPDRFSGSGSGTDFTLTISSLQAEDVAVYYCQQYSSYPFTFGGGTKVEIKR; 6.29

Answer for every listed entry: what is its Kd? The entries follow.
1. humanized R15E6 variant HC2LC3 (antibody, human IgG4 S228P, kappa, V domains shown, Human IgG4 (S228P) / kappa, expressed in CHO cells; Signal peptides left out by range; also called VH2-VL3) VH: EVQLVESGGGLVQPGGSLRLSCAASGFTFNANAMNWVRQAPGKGLEWVGRIRTKSNNYATYYAGSVKDRFTISRDDSKNSLYLQMNSLKTEDTAVYYCVRDYYGSSAWITYWGQGTLVTVSS VL: DIQMTQSPFSLSASVGDRVTITCKASQHVGTAVAWYQQKPGKAPKLLIYWASTRHTGVPSRFSGSGSGTDFTLTISSLQPEDFATYFCQQYSSYPFTFGGGTKLEIKR
2. humanized R15E6 variant HC1LC2 (antibody, human IgG4 S228P, kappa, V domains shown, Human IgG4 (S228P) / kappa, expressed in CHO cells; Signal peptides left out by range; also called VH1-VL2) VH: EVQLVESGGGLVQPGGSLKLSCAASGFTFNANAMNWVRQASGKGLEWVGRIRTKSNNYATYYAGSVKDRFTISRDDSKNTAYLQMNSLKTEDTAAYYCVRDYYGSSAWITYWGQGTLVTVSS VL: DIVMTQSPDSLAVSLGERATINCKASQHVGTAVAWYQQKPGQPPKLLIYWASTRHTGVPDRFSGSGSGTDFTLTISSLQAEDVAVYYCQQYSSYPFTFGQGTKLEIKR

1: 2.98; 2: 3.06
